Test system: U2OS
Experiment: Incucyte cell viability with U2OS; also: unitless GR value; below 1 slowed growth and below 0 cell loss
Type: toxicity, cell-based
Settings: human, 24 h, 10 µM, compound concentration 10 uM, replicate number 2, timepoint 24 hours
endpoint: Growth Rate

{"columns": ["molecule", "endpoint", "test-value"],
 "data": [
  ["CN(C)C(=O)Cn1cc(-c2ccc(-c3cncc4ccccc34)cc2)cn1", "Growth Rate", 0.86],
  ["Cc1noc(-c2ccc(-c3ccc(CC(=O)O)cc3)cc2)c1NC(=O)O[C@H](C)c1ccccc1Cl", "Growth Rate", 0.95],
  ["COc1cc(OC)cc(C(=O)NNC(=O)Nc2cccc3ccccc23)c1", "Growth Rate", 0.86],
  ["CCCCCCCCc1ccc(CCC(N)(CO)CO)cc1", "Growth Rate", -0.13],
  ["CC(C)(C)c1cc(NC(=O)Nc2ccc(-c3cn4c(n3)sc3cc(OCCN5CCOCC5)ccc34)cc2)no1", "Growth Rate", 0.65],
  ["CCCCC/C=C\\C/C=C\\C/C=C\\C/C=C\\CCCC(=O)OC(CO)CO", "Growth Rate", 0.99],
  ["CCOC(=O)N[C@@H]1CC[C@@H]2[C@@H](C1)C[C@H]1C(=O)O[C@H](C)[C@H]1[C@H]2/C=C/c1ccc(-c2cccc(F)c2)cn1", "Growth Rate", 0.9],
  ["COc1cccc2c1c(NS(=O)(=O)c1ccc(Cl)s1)nn2Cc1cccc(CNC(=O)C(C)(C)O)c1", "Growth Rate", 0.89],
  ["CN(c1ncccc1CNc1ccnc(-c2cc3cc(Cl)ccc3[nH]2)n1)S(C)(=O)=O", "Growth Rate", 0.7],
  ["CC[S+]([O-])c1nc(-c2cccc(OCc3ccccc3)c2)cc(C(F)(F)F)n1 (centres undefined)", "Growth Rate", 0.16],
  ["Oc1c(CN2CCN(c3ccccn3)CC2)cc(Cl)c2cccnc12", "Growth Rate", 0.08],
  ["COc1c(C)cc(NC(=O)c2nn(Cc3ccc(F)cc3)c3c2CN(C(=O)c2ccc[nH]2)C[C@]3(C)C(N)=O)cc1C", "Growth Rate", 0.67],
  ["O=C(Nc1cc(C(F)(F)F)ccc1N1CCN(Cc2ccccn2)CC1)c1ccc(-c2ccncc2)o1", "Growth Rate", 0.76],
  ["O=C(NCc1ccc(F)cc1)N1CCN2C(=O)OC(c3ccccc3)(c3ccccc3)C2C1 (centres undefined)", "Growth Rate", 0.97],
  ["CN[C@@H]1Cc2cccc3[nH]c(=O)n(c23)C1.O=C(O)/C=C\\C(=O)O", "Growth Rate", 0.98],
  ["Cc1[nH]cnc1CN1CCc2c(c3ccccc3n2C)C1=O", "Growth Rate", 0.9],
  ["O=C1NC(NC23CC4CC(CC(C4)C2)C3)=N/C1=C\\c1ccc2ncsc2c1", "Growth Rate", 0.7],
  ["CC(C)Cc1ccc([C@@H](C)C(=O)NS(C)(=O)=O)cc1", "Growth Rate", 0.93],
  ["Cc1cc(O)c(-c2ccc([C@@H](C)CN(C)C)cc2)c2c1[nH]c(=O)c1sccc12", "Growth Rate", 0.09]
]}

---

System: Fibroblast
Experiment: Incucyte cell viability with human fibroblast; also: unitless GR value; below 1 slowed growth and below 0 cell loss
Assay type: toxicity, cell-based
Conditions: 0 h, 10 µM, compound concentration 10 uM, replicate number 2, timepoint 0 hours
// NB: equality with 0.6 counts as f; only Growth Rate strictly below is t

{"columns": ["molecule", "discrete-label"],
 "data": [
  ["O=C(O)c1nc2ccccc2c2[nH]c3c(I)cccc3c12", "f"],
  ["O=C(O)CCn1c2c(c3ccccc31)C[C@H](NS(=O)(=O)c1ccc(F)cc1)CC2", "f"],
  ["CC(C)c1cc(Oc2c(Cl)cc(-n3nc(C#N)c(=O)[nH]c3=O)cc2Cl)n[nH]c1=O", "f"],
  ["COc1cc2nc(N3CCN(C(=O)COc4c(OC)cccc4C(C)C)CC3)nc(N)c2cc1OC.Cl.Cl", "f"],
  ["COc1cc(C(=O)N(CCCc2ccccc2)Cc2ccc(CC(=O)O)cc2)cc(OC)c1C", "t"],
  ["CCn1c(-c2nc3cc(C(=O)N4CCCC(N)C4)ccc3n2C)cc2ccccc21.Cl (centres undefined)", "f"],
  ["CC(/C=C1\\SC(=S)N(CCCC(=O)Nc2ccc(C(=O)O)c(O)c2)C1=O)=C\\c1ccccc1", "t"],
  ["CC[C@@H](C)Nc1nc(C)nc2c(-c3ccc(OC)nc3C)c(C)nn12", "t"],
  ["COc1ccc2cc(S(=O)(=O)N[C@H](CC(=O)N[C@H](Cc3ccc(CN4[C@H](C)CCC[C@@H]4C)cc3)C(=O)N(C)C(C)C)c3ccc4c(c3)OCO4)ccc2c1.Cl", "t"],
  ["COC(=O)N1CCN(C(=O)Cc2ccc(Cl)c(Cl)c2)C(CN2CCCC2)C1.O=C(O)/C=C/C(=O)O (centres undefined)", "f"],
  ["O=C(Nc1cc(C(F)(F)F)ccc1N1CCCCC1)c1ccncc1", "f"],
  ["OC[C@H]1O[C@@H](n2cnc3c(NC4CCCC4)ncnc32)[C@H](O)[C@@H]1O", "t"],
  ["Cc1nn(C)c(C)c1-c1cccc2c1CC[C@H](N(C)C)C2", "t"],
  ["C[C@H](NC(=O)CNC(=O)c1cccc(Cl)c1)c1ccccc1", "t"],
  ["CC1=C(C)C(=O)C(C(C)(C)CC(=O)N(CCCCSC[C@H]2O[C@@H](n3cnc4c(N)ncnc43)[C@H](O)[C@@H]2O)Cc2cccc(-c3ccc(Cl)cc3)c2)=C(C)C1=O", "t"],
  ["CN(C)CCCOc1ccc(-c2cc(NCCCn3cccn3)nc(S(C)(=O)=O)n2)cc1", "t"],
  ["Cc1ccc(C(C)(O)c2nc3ccccc3s2)c(C)c1 (centres undefined)", "f"],
  ["COC(c1ccccc1)(c1ccccc1)[C@H](Oc1nc(C)cc(C)n1)C(=O)O", "f"],
  ["O=S(=O)(c1ccccc1)c1cnc2c(N3CCNCC3)cccc2c1 [INTEPIRDINE]", "t"],
  ["Br.Br.N=C(N)NCCSC(=N)N", "f"],
  ["Cc1cc(CN)cc(C)c1-c1ncn(C)c1-c1ccnc2cc(F)ccc12", "t"],
  ["Cc1ccc(O)c([C@H](CCN(C(C)C)C(C)C)c2ccccc2)c1.O=C(O)C(O)C(O)C(=O)O [TOLTERODINE TARTRATE]", "f"],
  ["CC(=O)Nc1cccc2c1c(Sc1ccc(Cl)cc1)c(C)n2CC(=O)O", "t"],
  ["CCc1ccccc1C(=O)Nc1n[nH]c2c(C)c(F)c(C3C(C#N)=C(C)N(C)C(C)=C3C#N)cc12", "t"],
  ["CN(c1ncccc1CNc1ccnc(-c2nc3c(F)c(Cl)ccc3[nH]2)n1)S(C)(=O)=O", "f"],
  ["C[C@H](CCC(=O)O)[C@H]1CC[C@H]2[C@@H]3CC[C@@H]4C[C@H](O)CC[C@]4(C)[C@H]3CC[C@]12C", "f"],
  ["O=C(O)CCCCCC[C@H]1C(=O)NC(=O)N1CCC(O)C1CCCCC1 (some centres undefined)", "t"],
  ["Cc1nc(C#Cc2cccnc2)cs1.Cl", "f"],
  ["O=C([O-])[C@H]1O[C@H](OP(=O)([O-])OP(=O)([O-])OC[C@H]2O[C@@H](n3ccc(=O)[nH]c3=O)[C@H](O)[C@@H]2O)[C@H](O)[C@@H](O)[C@@H]1O.[Na+].[Na+].[Na+]", "t"],
  ["O=C1NC(=O)C(c2ccccc2[N+](=O)[O-])=C1Nc1ccc(O)c(Cl)c1", "t"],
  ["O=C(O)c1cc2ccccc2c(Cc2c(O)c(C(=O)O)cc3ccccc23)c1O", "t"],
  ["COc1ncc2cc(C(=O)Nc3cc(C(=O)NCc4cccc(Cl)c4)ccc3Cl)c(=O)[nH]c2n1", "f"],
  ["COc1cc(NC(=O)CCN2CCC(OC(=O)Nc3ccccc3-c3ccccc3)CC2)c(Cl)cc1CNC[C@H](O)c1ccc(O)c2[nH]c(=O)ccc12", "t"],
  ["CC(C)Oc1ccc(-c2c[nH]cc2CN(C)CCO)cc1", "t"]
]}

---

Tested on: HEK-293T
Experiment: Incucyte cell viability with HEK293T; also: unitless GR value; below 1 slowed growth and below 0 cell loss
Assay type: toxicity, cell-based
Conditions: human, 0 h, 10 µM, compound concentration 10 uM, replicate number 1, timepoint 0 hours
Where a SMILES comes first, the peptide text is derived from it. Bridges are numbered along the chain shown (N, C = ends). [ ]: non-standard residue; d: D form. Orn = NCCC[C@H](N)C(=O)O; Mpa = O=C(O)CCS
Reported values of Growth Rate for individual entries

{"columns": ["molecule", "Growth Rate"],
 "data": [
  ["CSCC[C@H](NC(=O)[C@@H]1CCCN1C(=O)CNC(=O)[C@H](CCCCN)NC(=O)[C@H](Cc1cnc[nH]1)NC(=O)[C@H](CO)NC(=O)[C@H](CC(C)C)NC(=O)[C@H](CCCNC(=N)N)NC(=O)[C@@H]1CCCN1C(=O)[C@H](CCCNC(=N)N)NC(=O)[C@@H](N)CCC(N)=O)C(=O)N1CCC[C@H]1C(=O)N[C@@H](Cc1ccccc1)C(=O)O", 0.46],
  ["N[C@@]1(C(=O)O)CO[C@H]2[C@H](C(=O)O)[C@H]21", 0.68],
  ["CCCCCC(O)/C=C/[C@H]1C(=O)CC(O)C1C/C=C\\CCCC(=O)O (stereo partly specified)", 0.99],
  ["CCC(=O)NCC[C@@H]1CCc2ccc3c(c21)CCO3", 0.12],
  ["Cc1c(C(=O)NN2CCCCC2)nn(-c2ccc(Cl)cc2Cl)c1-c1ccc(Cl)cc1", 0.19],
  ["Cc1ccc(C(C)(O)c2nc3ccccc3s2)c(C)c1 (stereo unspecified)", 0.98],
  ["Cc1nccc(COC(=O)N2C[C@@H]3[C@@H](CNC(=O)c4ccc5[nH]nnc5c4)[C@@H]3C2)n1", 0.67],
  ["Cc1cnc(CNCC2(F)CCN(C(=O)c3ccc(F)c(Cl)c3)CC2)nc1", 0.4],
  ["COC(=O)[C@H]1[C@H]2C[C@H]3c4[nH]c5ccccc5c4CCN3C[C@H]2CC[C@@H]1O.Cl [RAUWOLSCINE HYDROCHLORIDE]", 0.51],
  ["CCN1/C(=C/C(C)=O)Sc2ccc(OC(C)=O)cc21", 0.98],
  ["COc1ccc2[nH]cc(CCNC(C)=O)c2c1", 0.52],
  ["CC(C)C[C@@H](NC(=O)[C@H](Cc1ccccc1)NC(=O)CNC(=O)[C@@H](C)NC(=O)[C@@H](N)Cc1ccc(O)cc1)C(=O)O", 0.71],
  ["Cc1[nH]cnc1CN1CCc2c(c3ccccc3n2C)C1=O", 0.73],
  ["O=C(O)C(F)(F)F.O=C1NC(=O)/C(=C/c2c[nH]c(=O)c(-c3ccc(N4CCNCC4)nc3)c2)S1", 0.87],
  ["CN[C@@H]1C[C@H]2O[C@@](C)([C@@H]1OC)n1c3ccccc3c3c4c(c5c6ccccc6n2c5c31)C(=O)NC4", -0.75],
  ["N#Cc1cc2c(OCC(O)CN3CCN(C(c4ccccc4)c4ccccc4)CC3)cccc2[nH]1 (racemic)", 0.77],
  ["O=C1[C@H](Cc2ccc(O)cc2)N2C(=O)CCN(C(=O)NCc3ccccc3)[C@H]2CN1Cc1cccc2ccccc12", 0.98],
  ["C[S+](C)[O-] [DIMETHYL SULFOXIDE]", 0.62],
  ["COC(=O)N1CCN(C(=O)Cc2ccc(Cl)c(Cl)c2)C(CN2CCCC2)C1.O=C(O)/C=C/C(=O)O (stereo unspecified)", 1],
  ["Cc1ccc(CNc2ncnc3ccc(-c4ccc(CO)o4)cc23)o1", 0.47],
  ["C[C@@H]1C[C@H]2[C@@H]3CCC4=CC(=O)C=C[C@]4(C)[C@@]3(F)[C@@H](O)C[C@]2(C)[C@@]1(O)C(=O)CO", 0.4],
  ["COC1(C[S@@+]([O-])c2ccccc2)CCN(CCc2c[nH]c3ccc(F)cc23)CC1", 0.79],
  ["N[C@@H](CCP(=O)(O)O)C(=O)O", 0.99],
  ["CC(C)CCC[C@@H](C)[C@H]1CC[C@H]2[C@@H]3[C@H](O)C=C4C[C@@H](O)CC[C@]4(C)[C@H]3CC[C@]12C", 0.95],
  ["O=C1c2c(Br)c(Br)c(Br)c(Br)c2C(=O)N1c1ncc[nH]1", 0.24],
  ["Br.Oc1cc2c(cc1O)C(c1ccccc1)CNCC2 (stereo unspecified)", 0.99],
  ["COCCn1c(C)c(C)s/c1=N\\C(=O)C1C(C)(C)C1(C)C", 0.71],
  ["CCOc1ccc(C[C@H]2NC(=O)CCSSC[C@@H](C(=O)N3CCC[C@H]3C(=O)N[C@@H](CCCN)C(=O)NCC(N)=O)NC(=O)[C@H](CC(N)=O)NC(=O)[C@H]([C@@H](C)O)NC(=O)[C@H]([C@@H](C)CC)NC2=O)cc1 [ATOSIBAN] ([Mpa][dY](Et)ITNCP[Orn]G-NH2; disulfide 1-6)", 0.87],
  ["CSCC[C@H](NC(=O)[C@H](CC(C)C)NC(=O)CNC(=O)[C@H](Cc1ccccc1)N(C)C(=O)[C@H](Cc1ccccc1)NC(=O)[C@H](CC(=O)O)NC(=O)CCC(=O)O)C(N)=O [SENKTIDE]", 0.75],
  ["O=S(=O)(c1ccccc1)c1cnc2c(N3CCNCC3)cccc2c1 [INTEPIRDINE]", 1],
  ["CC(C)[C@H](C(=O)Nc1ccc(C(=O)NO)cc1)c1ccccc1", 0.33]
]}
